All values here come from patent US9920033B2.

# measurement.description: Pharmacokinetics test in beagle dogs
# Assay type: in vivo
# test.conditions: dog, plasma, po, capsule by gavage, dose 9.7 mg/kg, grain size D90 32 μm
endpoint: Tmax
Remember to quote the unit after the number.

Any idea what its Tmax is? The compound is "Cc1c(C(=O)Nc2ccc(Oc3ccnc4cc(OCC(C)(C)O)ccc34)c(F)c2)c(=O)n(-c2ccccc2)n1C.Cc1ccc(S(=O)(=O)O)cc1"
3.33 h

---

# measurement.description: Pharmacokinetics test in beagle dogs
# Type: in vivo
# test.conditions: dog, plasma, po, capsule by gavage, dose 10 mg/kg, grain size D90 22 μm
endpoint: AUC(0-inf) (µg·h/mL)
Expressed in µg·h/mL, but write only the number.

Report AUC(0-inf) for Cc1c(C(=O)Nc2ccc(Oc3ccnc4cc(OCC(C)(C)O)ccc34)c(F)c2)c(=O)n(-c2ccccc2)n1C.Cc1ccc(S(=O)(=O)O)cc1 [Form A] please.
180
